system: SF-295; test: NCI tumour cell line growth inhibition, 48 h
Calls of active or inactive are those of the source. No stated cut-off is given here; in the data, active = GI50 up to about 1.1 µM and inactive = higher.
measurement type: GI50

Input line: Look up GI50 for this compound: "O=c1c2cc(S(=O)(=O)Nc3ccc(Cl)cc3Cl)ccc2ncn1NS(=O)(=O)c1cccc2ccccc12"
Output line: 37.4 µM (inactive)

Input line: Look up GI50 for this compound: "O=C(O/N=C1/CCC/C1=C\c1ccccc1)c1ccc([N+](=O)[O-])cc1"
Output line: > 100 µM (inactive)

Input line: Look up GI50 for this compound: O=C1/C(=C/c2cccnc2)C(n2cccc2)c2c(Br)sc(Br)c21 (stereo not given)
Output line: 15.2 µM (inactive)

Input line: Look up GI50 for this compound: "O=C1C(Cl)=C(OCCCCl)C(=O)c2c(O)ccc(O)c21"
Output line: 6.17 µM (inactive)

Input line: Look up GI50 for this compound: "COc1ccc2c(c1)C(=O)Cc1ccccc1CC2"
Output line: > 100 µM (inactive)

***
Input line: Look up GI50 for this compound: "O=C1OCC(c2ccc(Cl)cc2)=C1Cl"
Output line: 39.9 µM (inactive)

Input line: Look up GI50 for this compound: "COc1cc(-c2cc(CCC(=O)Nc3ccccc3[N+](=O)[O-])n(-c3ccc([N+](=O)[O-])cc3[N+](=O)[O-])n2)ccc1O"
Output line: > 10 µM (inactive)

Input line: Look up GI50 for this compound: "Clc1ccc2nc3c(c(-c4ccccc4)nn3-c3ccccc3)c(-c3ccccc3)c2c1"
Output line: > 100 µM (inactive)

Input line: Look up GI50 for this compound: "CCOc1cc(-c2nc3ccccn3c2/N=C/c2cc([N+](=O)[O-])cc([N+](=O)[O-])c2O)ccc1O"
Output line: > 100 µM (inactive)

Input line: Look up GI50 for this compound: "COc1ccc(Cl)cc1NC(=O)c1cccc([N+](=O)[O-])c1O"
Output line: 17.8 µM (inactive)
